# Tested on: Plasmodium falciparum
# test_summary: NOVARTIS: Inhibition of Plasmodium falciparum W2 (drug-resistant) proliferation in erythrocyte-based infection assay
# Type: functional, organism-based
# run_conditions: Plasmodium falciparum, W2; read-out: EC50
readout_label: log10(EC50) (log10 of the value in nM)

• CCCOC(=O)C1=C(C)NC2=C(C(=O)CC(c3ccc(OC)c(OC)c3)C2)C1c1ccc([N+](=O)[O-])cc1 (stereo not given) = 1.31
• Cc1cn2c3ccccc3n(CCN3CCCC3)c2n1 = 2.95
• CN(CCCNc1ccnc2cc(Cl)ccc12)C(=O)COc1ccccc1 = 2.46
• CCOc1ccc(-c2nonc2NC(=O)c2ccco2)cc1OCC = 2.68
• CC(C)CNC(=O)c1cc(NC(=O)c2cccs2)ccc1N1CCc2ccccc2C1 = 1.51
• COc1ccccc1Nc1nc(NCC2CCCO2)c2ccccc2n1 (stereo not given) = 3.20
• c1ccc(-c2cccc(-c3ccccn3)n2)nc1 = 1.59
• CC(=O)O[C@]1(C(C)=O)CCC2C3C=CC4=CC(=O)CC[C@]4(C)C3CC[C@@]21C (stereo not given in full) = 3.00
• COc1ccc(CN2CSC3=C(C#N)C(c4cccc(OC)c4)CC(=O)N3C2)cc1 (stereo not given) = 3.55
• CCCCC(CC)C(=O)N(C)CCCNc1ccnc2cc(Cl)ccc12 (stereo not given) = 2.37

====

# Tested on: Plasmodium falciparum
# test_summary: NOVARTIS: Inhibition of Plasmodium falciparum W2 (drug-resistant) proliferation in erythrocyte-based infection assay
# Format: functional, organism-based
# run_conditions: Plasmodium falciparum, W2; read-out: EC50
readout_label: EC50 (µM)

• COc1ccc(C2CC(=O)C3=C(C2)NC(C)=C(C(=O)OC2CCCC2)C3c2cccc(C)c2)cc1OC (stereo not drawn) = 0.208
• COc1ccc(CN2CCOc3ccc(C(C)(O)CN(C)C)cc3C2)cc1C (stereo not drawn) = 0.193
• COc1ccc(C(OCC(=O)N2CCN(Cc3ccccc3)CC2)c2ccccc2)cn1 (stereo not drawn) = 0.434
• O=C(NCCCCNc1ccnc2cc(Cl)ccc12)c1cc(C(F)(F)F)cc(C(F)(F)F)c1 = 0.766
• O=S(=O)(NCCCCNc1ccnc2cc(Cl)ccc12)c1cc(Cl)ccc1Cl = 0.338
• CCOC(=O)c1c(CNCCN(CC)CC)n(C)c2cc(Br)c(OC(C)=O)cc12 = 0.309
• CC(C)C(=O)NC(Nc1cccc([N+](=O)[O-])c1)C(Cl)(Cl)Cl (stereo not drawn) = 1.2
• COc1ccc(C2=C(Nc3ccc4oc5ccccc5c4c3)c3ccccc3C2=O)cc1 = 0.1
• COc1ccc(CNCCN2CCN(c3ccccc3)C[C@@H]2Cc2ccc(O)cc2)cc1 = 0.0549
• CN(C)c1ccc(C=Cc2nc(=O)c3ccccc3o2)cc1 = 0.0961
• CC(C)N1CCCC(C(=O)Nc2ccc(-c3nc4ccccc4[nH]3)cc2)C1 (stereo not drawn) = 0.593
• CCOC(=O)c1cnc2cc(Cl)c(OC)cc2c1NCCCN1CCOCC1 = 1.34
• COc1cc(C=C(C#N)c2nc3ccccc3[nH]2)ccc1OCc1ccccc1F = 0.937
• Cc1c(Cl)cccc1-n1c(C(C)N(CCc2ccccc2)C(=O)COc2ccccc2)nc2ccccc2c1=O (stereo not drawn) = 0.701
• CCCC[C@@H](C)C(O)[C@H]1C(=O)N[C@@H](CC)C(=O)N(C)CC(=O)N(C)[C@@H](CC(C)C)C(=O)N[C@@H](C(C)C)C(=O)N(C)[C@@H](CC(C)C)C(=O)N[C@@H](C)C(=O)N[C@H](C)C(=O)N(C)[C@@H](CC(C)C)C(=O)N(C)[C@@H](CC(C)C)C(=O)N(C)[C@@H](C(C)C)C(=O)N1C (stereo partly drawn) = 0.251
• CNC1=C(N(C(C)=O)c2ccc(Br)cc2)C(=O)c2ccccc2C1=O = 0.156
• COc1ccc(OC)c(-c2ccc(O)c(CNCC3CC4C=CC3C43CC3)c2)c1 (stereo not drawn) = 0.0398

====

# test_summary: NOVARTIS: Cytotoxicity against human hepatocellular carcinoma cell line (Huh7)
# Type: toxicity, cell-based, Huh-7
# run_conditions: Huh7 cells (hepatocellular carcinoma cell line)
readout_label: CC50

• COc1ccc(C2CC(=O)C3=C(C2)NC(C)=C(C(=O)OC(C)C)C3c2ccccc2C)cc1OC (stereo not given) = > 100 µM
• CCN(CC)CCNC(=O)c1cc(-c2cc3ccccc3s2)cc(-n2cnnn2)c1 = 21.3 µM
• CCOc1ccc2nc(SCc3nc(N)nc(N4CCOCC4)n3)sc2c1 = > 10 µM
• CCN(CC)C(CN1CCN(CC(C)C(=O)c2ccc(O)cc2)CC1)c1ccc(F)cc1 (stereo not given) = 49 µM
• COCCNCc1cc2cc3c(cc2n(Cc2cccc(F)c2)c1=O)OCO3 = > 10 µM
• CCOc1ccc(S(=O)(=O)Oc2cccc3cccnc23)cc1 = > 10 µM
• O=C1N(Cc2cc3ccccc3s2)CC2CN(Cc3ccoc3)CCN12 (stereo not given) = > 10 µM
• O=C(Nc1ccc(NC(=O)c2ccc(C3=NCCCN3)cc2)cc1)Nc1ccc(C2=NCCCN2)cc1 = > 10 µM
• CC(C)(C)CC(C)(C)Nc1c(-c2ccccc2OC(=O)c2ccc([N+](=O)[O-])cc2)nc2ccccn12 = 1.49 µM
• CCCCCCN(C(=O)c1ccc(C(C)(C)C)cc1)C(CC)c1nc2cc(Cl)ccc2c(=O)n1CC (stereo not given) = > 10 µM
• CC(=O)O[C@H]1C(=O)[C@@]2(C)C([C@H](OC(=O)c3ccccc3)[C@]3(O)C[C@H](OC(=O)[C@@H](O)[C@@H](NC(=O)c4ccccc4)c4ccccc4)C(C)=C1C3(C)C)[C@]1(OC(C)=O)CO[C@@H]1C[C@@H]2O (stereo not given in full) = > 100 µM
• COc1ccccc1N1CCN(c2ccc(NC(=O)/C=C/c3ccc([N+](=O)[O-])cc3)cc2C(=O)NCCCN(C)C)CC1 = 0.921 µM
• Cc1ccc(Nc2nc(NN=Cc3ccc(-c4ccc([N+](=O)[O-])cc4)o3)nc(Nc3ccccc3)n2)c(C)c1 = > 10 µM
• COCC(=O)NCc1ccc(OC2CCN(CC(c3ccccc3)c3ccccc3)CC2)cc1 = > 10 µM
• COCCNC(=O)c1ccc2c(=O)n(Cc3ccc4c(c3)OCO4)c(=S)[nH]c2c1 = > 10 µM
• O=S(=O)(Nc1cc(Sc2nc[nH]n2)c(O)c2ccccc12)c1ccc(F)cc1 = 20.5 µM
• N=c1c2c(n(Cc3ccccc3Cl)c3c1CCC3)CCCC2 = > 100 µM
• Nc1c(C(=O)Nc2ccc(F)cc2)sc2nc3c(c(-c4cccs4)c12)CCCC3 = > 100 µM
• Cc1ccc(CN2CCC(O)(c3ccc4oc(C(=O)NCCc5cccc(F)c5)cc4c3)CC2)cc1 = 43.5 µM
• COc1ccc2nc(C)cc(Nc3cccc(O)c3)c2c1 = 51 µM

====

Reported CC50 values follow for various compounds
# test_summary: NOVARTIS: Cytotoxicity against human hepatocellular carcinoma cell line (Huh7)
# Type: toxicity, cell-based, Huh-7
# run_conditions: Huh7 cells (hepatocellular carcinoma cell line)
readout_label: CC50

* COc1ccc(-c2cc(C3CCN(c4nc(N)c5cc(OC)c(OC)cc5n4)CC3)n[nH]2)cc1OC | 16.4 µM
* O=C(NC1CCN(Cc2ccccc2)CC1)c1cc(-c2ccc(F)cc2)cc(-n2cnnn2)c1 | 45 µM
* Cc1ccc(C(C(=O)NCc2ccccc2)N(C(=O)c2snc(C(N)=O)c2N)c2ccccc2)o1 (stereo unspecified) | > 10 µM
* CC1(C)C2CCC1(C)C(OCC[N+]1(Cc3ccccc3)CCCC1)C2 (stereo unspecified) | 12.7 µM
* CN1CCN(c2nc(NCCNc3ccc([N+](=O)[O-])cc3)c3ccccc3n2)CC1 | 19 µM
* Cc1ncc(CN2CCC(C(=O)Nc3ccc(-n4cccn4)cc3)CC2)s1 | > 100 µM
* CCN1CCN(c2cc(C)c3cc(NC(=O)/C=C/c4sccc4C)ccc3n2)CC1 | > 10 µM
* FC(F)(F)c1cccc(-c2nc3c(s2)CN(C2CCCC2)CC3)c1 | 73 µM
* Oc1ccc(-c2cncc(NCc3cccc(O)c3)c2)cc1 | > 10 µM
* Cc1cccn2c(=O)c3cc(C(=O)NC4CCCC4)c(=N)n(CCc4ccccc4)c3nc12 | > 100 µM
* COc1ccc2c(c1)C=C([C@@H]1C[C@H]3CN(c4ccccc4)C(=O)[C@]34CCCN14)CO2 | > 100 µM
* CC(C)(C)c1nn(-c2ccc(Cl)cc2)c2[nH]c(=O)c(CNCc3ccc(Cl)cc3)cc12 | > 100 µM
* CCOC(=O)c1ccc(N2CCN(c3ccc(F)cc3)CC2)c(NC(=O)Nc2ccccc2)c1 | > 10 µM
* Nc1ccc(-c2nc3cc(Oc4ccc5[nH]c(-c6ccc(N)cc6)nc5c4)ccc3[nH]2)cc1 | 21.4 µM
* CCCN(CC1CC1)C(=O)C1CCCN(c2cccc3c2C(=O)N(Cc2cc(OC)c(OC)c(OC)c2)C3=O)C1 (stereo unspecified) | > 10 µM
* COC1=CC(=O)c2c(ccc3cc(O)ccc23)C1=O | > 10 µM
* c1ccc(C2=NN(c3ccccc3)N(c3ccccc3)N2)cc1 | > 100 µM
* CC(C)CNC(=O)c1ccc(OC2CCN(CC3CCCCC3)CC2)c(Cl)c1 | 14.8 µM
* C[n+]1ccc(C=Cc2ccccc2F)c2ccccc21 | 81.9 µM
* Nc1nnc(SCC(=O)Nc2nnc(SCC(=O)Nc3nccs3)s2)s1 | > 10 µM
* Cc1ccccc1NC(=O)N(CCCNC(=O)CCl)c1ccccc1 | > 10 µM

Provenance of the data: ChEMBL document CHEMBL1156829
